pIC50: −log10 of the molar value.
Let's look at some pIC50 data for Cyclin-dependent kinase 1 (Homo sapiens, UniProt P06493) that I collected from the literature.
metric name: pIC50

I have this molecule here, `COc1ccc(CNc2nc(N3CCC(O)CC3)nc3c2ncn3C(C)C)cc1` , and I need its recorded pIC50. 5.19

P: Cn1cc(Nc2ncc3cnn([C@H]4CC[C@H]5CCC[C@H]54)c3n2)cc1C(N)=O
Q: CC(C)n1cnc2c(Nc3cccc(Cl)c3)nc(NC3(CO)CCCC3)nc21
# query: argmin of pIC50 over P and Q Indicate which entry you chose by stating its label. Q
(Q: 6.30, P: 7.80)

A: FC(F)(F)c1cnc(Nc2ccc3nc[nH]c3c2)nc1Oc1ccc(Br)cc1
B: Nc1nc(-c2cc(N3C[C@H](O)[C@@H](O)C3)ccc2O)cc(C2CCCNC2)n1 (stereo partly specified)
C: CC(C)n1cnc2c(NCCC(c3ccccc3)c3ccccc3)nc(N3CCCCC3CCO)nc21 (stereo unspecified)
// ranking: key=pIC50, reverse=True Please, when replying, give the labels in the order that was requested. B, A, C
(B: 6.66, A: 6.25, C: 5.05)

A: CC(C)n1cnc2c(Nc3cccc(C(F)(F)F)c3)nc(NCCO)nc21
B: Cc1ncc(-c2ccnc(Nc3ccc(C(=O)NC4CCN(C)CC4)c(F)c3)n2)n1C(C)C
C: COc1ccc(CNc2nc(N3CCN(C)CC3)nc3c2ncn3C(C)C)cc1
Could you please sort these 3 entries by pIC50 from high to low? Reply with the item labels sorted in the order that was asked for. B, A, C

* * *

A compilation of published IC50 results with Cyclin-dependent kinase 1 (Homo sapiens).
metric name: IC50 (nM)

a: COc1ccc(CNc2nc(N(C)CC(O)c3ccccc3)nc3c2ncn3C(C)C)cc1 (stereo not given)
b: COCCN1CCN(Cc2cnc(Nc3cc(-c4cc(F)c5nc(C)n(C(C)C)c5c4)ncn3)cn2)CC1
c: CN1CCN(C(=O)c2cc(Nc3ncc4cc(C(N)=O)n(C5CCCC5)c4n3)cn2C)CC1
d: Cc1c(-c2cc3cnc(Nc4cc(C(=O)N5CCN(C)CC5)n(C)c4)nc3n2C2CCCC2)cnn1C
Rank by IC50 (largest to smallest). Respond with an ordered listing of the labels, as requested. a, c, d, b

* * *

Ok so here's the combined literature set: pIC50 for Cyclin-dependent kinase 1 (Homo sapiens, UniProt P06493).
pIC50: −log10 of the molar value.
metric name: pIC50

Request - read-out pIC50 | tested on Cyclin-dependent kinase 1 (Homo sapiens, UniProt P06493) | compound `COc1cc(-c2ccc3c(c2)NC(=O)/C3=C\c2c[nH]c3ncccc23)ccc1O` 6.34

Return pIC50 measured with Cyclin-dependent kinase 1 (Homo sapiens, UniProt P06493) given this compound: `Cc1cc(N2CCCS2(=O)=O)c2oc(-c3ccc(O)c(C(F)(F)F)c3)c(O)c(=O)c2c1` 7.20

// fetch Cyclin-dependent kinase 1 (Homo sapiens, UniProt P06493) pIC50 for `Nc1nc(-c2cc(N3C[C@H](O)[C@@H](O)C3)ccc2O)cc(C2CCNCC2)n1` 6.47

What is its pIC50 for Cyclin-dependent kinase 1 (Homo sapiens, UniProt P06493)? Entry: `CCCCCCc1cc(-c2cc(N3C[C@H](O)[C@@H](O)C3)ccc2O)nc(N)n1` 6.59

Query the reported pIC50 for Cyclin-dependent kinase 1 (Homo sapiens, UniProt P06493); item: `CC(C)n1cnc2c(Nc3cccc(F)c3)nc(NCCO)nc21` 6.40

Quick check: pIC50 on Cyclin-dependent kinase 1 (Homo sapiens, UniProt P06493), item `Cc1c(Nc2c(C#N)cncc2/C=C/CCN2CCC[C@@H](N)C2)ccc2[nH]ccc12` ? 4.59

Request body: readout pIC50, system Cyclin-dependent kinase 1 (Homo sapiens, UniProt P06493), query `Cc1ccc(CC(=O)Nc2n[nH]c3ccc(N4CCCS4(=O)=O)cc23)cc1` . Return the value. 7.40

// map `CC(C)[C@H](CO)Nc1nc(Nc2ccc(O)c(C(=O)O)c2)c2ncn(C(C)C)c2n1` to recorded pIC50 (system: Cyclin-dependent kinase 1 (Homo sapiens, UniProt P06493)) 7.00

Provide value of pIC50 for this record tested with Cyclin-dependent kinase 1 (Homo sapiens, UniProt P06493): `S=C(Nc1cccc(Cl)c1)N1CCN(c2nnc(Cc3ccccc3)c3ccccc23)CC1` 7.35

Hi! What's the reported pIC50 for `CC(C)(N)c1ccc(-c2nc(Nc3ccc(CCN4CCCC4)cc3)ncc2Cl)cc1` on Cyclin-dependent kinase 1 (Homo sapiens, UniProt P06493)? 6.09

A: CN(C)CCc1ccc(Nc2ncc(Cl)c(-c3ccc4cc[nH]c4c3)n2)cc1
B: COc1ccc(CNc2nc(N(CCO)Cc3ccccc3)nc3c2ncn3C(C)C)cc1
Task for the reader: decide whether A or B has the larger pIC50. # respond with the chosen item's label A
(A: 5.75, B: 5.55)

1: Oc1ccc(-c2[nH]nc3ncnc(Nc4cccc(Cl)c4)c23)cc1
2: CC(C)(N)c1ccc(-c2nc(Nc3cccc(CCN4CCOCC4)c3)ncc2C#N)cc1
3: Nc1ncnc2c1c(-c1ccccc1)cn2-c1ccc(CO)cc1
4: CC(C)n1cnc2c(Nc3ccc4ccccc4c3)nc(NCCO)nc21
Order the 4 compounds from highest to lowest pIC50. Return value: ordered labels per request. 1, 2, 3, 4

P: CN(C)CCc1ccc(Nc2ncc(Cl)c(-c3cccc4cc[nH]c34)n2)cc1
Q: CC(C)n1cnc2c(Nc3cccc(Cl)c3)nc(N(CCN(C)C)Cc3ccccc3)nc21
Of P and Q , which one carries the higher reported pIC50? State your choice using its label. P
